In this section, each of the binders is paired with its reported koff.
# TESTED SYSTEM: T1, recombinant human CTLA4-his protein (Acro biosystems, Cat#CT4-H5229) (human, UniProt P16410 37-162)
# T1 construct: bought recombinant protein; not shown: his tag
# T1 sequence (looked up): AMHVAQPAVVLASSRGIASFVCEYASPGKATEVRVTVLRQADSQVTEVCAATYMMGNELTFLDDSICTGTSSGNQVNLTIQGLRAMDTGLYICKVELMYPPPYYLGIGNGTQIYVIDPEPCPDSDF
# PROCEDURE DETAILS: BLI, Octet; antibody from cell supernatant on AHC sensor, CTLA4-his as analyte
Report as a plain number; the unit s⁻¹ is understood.

[Q] Find the recorded koff belonging to huC1D1-V6 (antibody, human IgG4 S228P, kappa, V domains shown, humanized IgG4/kappa; tested as 293F cell supernatant on Octet; also called hu CTLA4 C1D1-V6) VH: EVQLVESGGGLVQPGRSLRLSCTASGFTFSDNWMNWVRQAPGKGLEWVAQIRNKPYNYETYYSDSVKGRFTISRDDSKSIAYLQMNSLKTEDTAVYYCTGGMDYWGQGTTVTVSS VL: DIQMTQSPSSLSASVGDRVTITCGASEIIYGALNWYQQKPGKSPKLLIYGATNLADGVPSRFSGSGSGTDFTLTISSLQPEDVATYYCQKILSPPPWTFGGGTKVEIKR and report it.
[A] 0.000287

[Q] Using the record for huC1D1-V1 (antibody, human IgG4 S228P, kappa, V domains shown, humanized IgG4/kappa; tested as 293F cell supernatant on Octet; also called huCTLA4 C1D1-V1) VH: EVQLVESGGGLVQPGRSLRLSCTASGFTFSDNWMNWVRQAPGKGLEWVAQIRNKPYNYETYYSDSVKGRFTISRDDSKSIVYLQMNSLKTEDTAVYYCTGGMDYWGQGTTVTVSS VL: DIQMTQSPSSLSASVGDRVTITCGASEIIYGALNWYQQKPGKSPKLLIYGATNLADGMPSRFSGSGSGRDYTLTISSLQPEDVATYYCQKILSPPPWTFGGGTKVEIKR , report its koff.
[A] 4.61e-05

[Q] GET /values?readout=koff&item= huD1D5-V4 (antibody, human IgG4 S228P, kappa, V domains shown, humanized IgG4/kappa; tested as 293F cell supernatant on Octet; also called hu CTLA4 D1D5-V4) VH: EVQLVESGGGLVKPGGSLRLSCAASGFTFSDYGMAWVRQAPGKGLEWVSFISNLAYSVYYADTETGRFTISRDNAKNSLYLQMNSLRAEDTAVYYCARSGLPYAMDYWGQGTTVTVSS VL: DIQMTQSPSSLSASVGDRVTITCRASQDISNYLNWYQQKPGKTVKLLIYYISRLHSGVPSRFSGSGSGTDFTLTISSLQPEDVATYFCQQGRMLPWTFGGGTKVEIKR
[A] 0.000408
